Data provenance: ChEMBL document CHEMBL4376834

Target: Macrophage-stimulating protein receptor (Homo sapiens, UniProt Q04912)
Sequence (Q04912 25-304 limits assumed): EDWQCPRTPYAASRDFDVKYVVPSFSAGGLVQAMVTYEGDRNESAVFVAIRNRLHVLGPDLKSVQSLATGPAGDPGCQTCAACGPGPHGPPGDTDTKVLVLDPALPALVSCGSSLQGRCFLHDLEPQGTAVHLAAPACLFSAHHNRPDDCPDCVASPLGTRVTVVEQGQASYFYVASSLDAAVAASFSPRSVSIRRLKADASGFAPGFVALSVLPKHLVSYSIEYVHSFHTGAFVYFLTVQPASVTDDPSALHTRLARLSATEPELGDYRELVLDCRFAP
Sequence (Q04912 310-1400 limits assumed): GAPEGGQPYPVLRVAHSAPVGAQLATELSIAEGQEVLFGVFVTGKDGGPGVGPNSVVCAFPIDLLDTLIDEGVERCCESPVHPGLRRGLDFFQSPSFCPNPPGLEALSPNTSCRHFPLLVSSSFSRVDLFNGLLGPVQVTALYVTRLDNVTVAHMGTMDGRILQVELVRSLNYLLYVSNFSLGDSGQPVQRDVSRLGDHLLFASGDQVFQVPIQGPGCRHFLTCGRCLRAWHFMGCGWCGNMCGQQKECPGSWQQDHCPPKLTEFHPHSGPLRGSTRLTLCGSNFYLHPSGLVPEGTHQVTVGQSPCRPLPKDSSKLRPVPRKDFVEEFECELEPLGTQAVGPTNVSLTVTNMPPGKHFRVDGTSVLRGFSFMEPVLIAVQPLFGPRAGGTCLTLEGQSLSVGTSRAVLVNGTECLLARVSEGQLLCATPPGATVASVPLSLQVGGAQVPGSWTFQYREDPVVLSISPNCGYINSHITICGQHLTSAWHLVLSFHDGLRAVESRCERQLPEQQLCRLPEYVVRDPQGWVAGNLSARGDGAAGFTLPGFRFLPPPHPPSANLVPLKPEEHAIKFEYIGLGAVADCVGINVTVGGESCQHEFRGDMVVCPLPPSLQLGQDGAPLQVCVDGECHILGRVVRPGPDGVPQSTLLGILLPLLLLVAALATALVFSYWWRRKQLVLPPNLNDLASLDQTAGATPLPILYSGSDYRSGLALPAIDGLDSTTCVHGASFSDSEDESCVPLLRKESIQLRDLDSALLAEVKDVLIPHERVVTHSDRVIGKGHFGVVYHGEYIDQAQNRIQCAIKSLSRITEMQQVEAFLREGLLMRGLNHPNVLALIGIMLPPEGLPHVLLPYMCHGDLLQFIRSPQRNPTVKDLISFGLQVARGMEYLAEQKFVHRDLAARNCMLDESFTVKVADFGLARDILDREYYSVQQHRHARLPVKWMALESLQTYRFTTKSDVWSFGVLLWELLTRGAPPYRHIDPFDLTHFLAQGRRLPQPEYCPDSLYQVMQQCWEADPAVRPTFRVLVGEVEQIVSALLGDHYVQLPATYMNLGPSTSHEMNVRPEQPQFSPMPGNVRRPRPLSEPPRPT
Assay: Inhibition of recombinant human Ron (983 to end residues) using GGMEDIYFEFMGGKKK as substrate incubated for 40 mins in presence of [gamma33P]ATP by radiometric scintillation counting analysis
pIC50: −log10 of the molar value.
readoutType: pIC50

1) CN(C)c1ccc(C(=O)Nc2cccc(NC(=O)COc3ccc4c(=O)ccoc4c3)c2)cc1 : < 5.00

----------
Target: Cyclin-dependent kinase-like 1 (Homo sapiens, UniProt Q00532)
Sequence (Q00532 whole entry, the tested form may be a part): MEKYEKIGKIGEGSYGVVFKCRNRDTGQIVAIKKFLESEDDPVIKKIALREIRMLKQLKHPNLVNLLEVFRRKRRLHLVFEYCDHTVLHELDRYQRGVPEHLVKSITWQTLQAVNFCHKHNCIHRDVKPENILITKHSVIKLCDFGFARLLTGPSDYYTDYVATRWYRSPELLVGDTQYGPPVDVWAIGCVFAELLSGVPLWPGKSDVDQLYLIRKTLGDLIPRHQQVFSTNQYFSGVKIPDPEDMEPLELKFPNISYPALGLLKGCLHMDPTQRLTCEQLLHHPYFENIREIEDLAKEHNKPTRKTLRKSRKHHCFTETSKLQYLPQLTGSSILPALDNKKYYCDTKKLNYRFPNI
Test: Inhibition of recombinant human CDKL1 (1 to 303 residues) using RRRFRPASPLRGP as substrate incubated for 120 mins in presence of [gamma-33ATP] by radiometric scintillation counting analysis
readoutType: IC50

1) CN(C)c1ccc(C(=O)Nc2cccc(NC(=O)COc3ccc4c(=O)ccoc4c3)c2)cc1 : > 10 µM
